Target or system: T1, VEGFR-2-Fc (UniProt P35968 20-322)
T1 construct: domain: first 3 Ig domains; conditioned supernatant of 293T cells; also called VEGFR-2-Fc fusion protein; not shown: Fc fragment of the pIg vector
T1 sequence (P35968 20-322): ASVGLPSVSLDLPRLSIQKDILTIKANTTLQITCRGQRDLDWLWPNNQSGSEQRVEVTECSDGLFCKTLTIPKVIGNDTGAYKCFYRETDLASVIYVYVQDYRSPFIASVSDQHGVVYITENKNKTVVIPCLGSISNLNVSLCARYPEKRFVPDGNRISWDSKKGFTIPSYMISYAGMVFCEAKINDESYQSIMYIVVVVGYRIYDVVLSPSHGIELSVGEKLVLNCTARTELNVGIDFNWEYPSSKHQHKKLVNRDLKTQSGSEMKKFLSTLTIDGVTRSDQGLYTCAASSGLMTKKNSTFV
Test: receptor-Fc IP

{"columns": ["Binder", "binding result"],
 "data": [
  ["72-16 (ligand) GQNHHEVVKSIDNEWRKTQCMPREVCIDVGKEFGVATNTFFKPPCVSVYRCGGCCNSEGLQCMNTSTSYLSKTLFEITVPLSQGPKPVTISFANHTSCRCMSKLD", "binds"],
  ["41-5 (ligand) AHYNTEILKFMDVYQRSYCHPREVCIDVGKEYPDEIEYIFKPSCVPLMRCGGCCNDEGLECVPTEESNITMQIMRIKPHQGQHIGEMSFANHTSCRCMSKLD", "no binding"],
  ["82-13 (ligand, clone entry) AHYNTEILKFMDVYQRSYCHPIETLVDIFQEFGVATNTFFKPPCVSVYRCGGCCNDEGLECVPTEESNITMQIMRITVPLSQGPKPVTISFANHTSCRCMSKLDL", "no binding"],
  ["83-15 (ligand, clone entry) AHYNTEILKFMDVYQRSYCHPIETLVDIFQEYPDEIEYIFKPPCVSVYRCGGCCNSEGLQCVPTEESNITMQIMRITVPLSQGPKPVTISFANHTSCRCMSKLDL", "binds"]
]}
